The origin of these recorded values is patent US20250326722A1.

assay: Pharmacokinetic determination in mice (plasma); format: in vivo, C57BL/6J mice; details: C57 mice, PO administration, 5 mpk
measuredAttribute: Time to peak tmax (h)

Observe how each entry below is paired with its result.
[[record]]
compound = "O=C1c2ncccc2CN1c1ccc(N[C@H]2CC[C@H](Nc3nc4cc(F)ccn4n3)C2)nc1 [Example 129]"
measuredattribute = "Time to peak tmax"
reportedvalue = 0.5

[[record]]
compound = "Cc1nccc2c1CN(c1ccc(N[C@H]3CC[C@H](Nc4nc5cc(F)ccn5n4)C3)nc1)C2=O [Example 149]"
measuredattribute = "Time to peak tmax"
reportedvalue = 0.5

[[record]]
compound = "O=C1c2ncccc2CN1c1ccc(N[C@H]2CC[C@H](Nc3ncc(C(F)(F)F)cn3)C2)nc1 [Example 134]"
measuredattribute = "Time to peak tmax"
reportedvalue = 2


1: O=C1c2cccnc2CN1c1ccc(N[C@H]2CC[C@H](Nc3ncc(C(F)(F)F)cn3)C2)nc1 [Example 133]
2: O=C1c2ncccc2CN1c1ccc(N[C@H]2CC[C@H](Nc3ncc(OC(F)(F)F)cn3)C2)nc1 [Example 142]
Query: Lower value for measured Time to peak tmax? Options: 1 , 2 Choose, then provide that item's label.
Reply: 1
(1: 0.25 h, 2: 2 h)

----------
assay: Pharmacokinetic determination in mice (plasma); assay type: in vivo, C57BL/6J mice; conditions: male, C57BL/6J, mouse, 5 mg/kg, C57 mice, PO administration, 5 mpk, read-out: Half-life t1/2 (converted)
measuredAttribute: half-life (h)

Before answering, review these 3 worked examples.
[[record]]
smiles = "O=C1c2ncc(F)cc2CN1c1ccc(N[C@H]2CC[C@H](Nc3ncc(C(F)(F)F)nn3)C2)nc1"
measuredattribute = "half-life"
reportedvalue = 2.9

[[record]]
smiles = "O=C1c2ncccc2CN1c1ccc(N[C@H]2CC[C@H](Nc3ncc(C(F)(F)F)cn3)C2)nc1"
measuredattribute = "half-life"
reportedvalue = 4.1

[[record]]
smiles = "O=C1c2ncccc2CN1c1ccc(N[C@H]2CC[C@H](Nc3ncc(OC(F)F)cn3)C2)nc1"
measuredattribute = "half-life"
reportedvalue = 5.9


1: Cc1cc2c(cn1)CN(c1ccc(N[C@H]3CC[C@H](Nc4nc5cc(C(F)(F)F)ccn5n4)C3)nc1)C2=O
2: O=C1c2cc(C(F)(F)F)ncc2CN1c1ccc(N[C@H]2CC[C@H](Nc3ncc(C(F)(F)F)nn3)C2)nc1
Query: Response body: label of entry with the larger half-life; valid values 1 , 2 . Answer by stating the label of the chosen item.
Reply: 2
(2: 9.6 h, 1: 3.6 h)

a: Cc1cc2c(cn1)CN(c1ccc(N[C@H]3CC[C@H](Nc4ncc(OC(F)F)cn4)C3)nc1)C2=O
b: O=C1c2ncccc2CN1c1ccc(N[C@H]2CC[C@H](Nc3ncc(C(F)(F)F)nn3)C2)nc1
Query: Between the entries labelled a and b , which has a larger half-life value on record? State your choice using its label.
Reply: a

----------
Tested on: LDLR level in HepG2 cells
Assay: Effect on the LDLR level in HepG2 cells (ELISA)
Type: cell-based, human
Settings: 48 hours incubation, LDLR ELISA of lysate
Experimental: To detect the effect of the compounds on the LDLR protein level. […] After the OD values were read by the microplate reader, the OD value of the 0-concentration standard in the standard group was subtracted from the OD values of the standards, control group, and samples to obtain the actual OD values for these wells. A standard curve was plotted with Graphpad and the concentration of the sample was calculated. […]
Listed compounds paired with reported LDLR expression level
Dear colleague, please return just the value in %, with no unit written.

[[record]]
smiles = "O=c1c(-c2ccc(N[C@H]3CC[C@H](Nc4ncc(OC(F)F)cn4)C3)nc2)ccc2ccccn12"
reportedvalue = 859


Query: Tell me LDLR expression level reported for O=C1c2ccncc2CN1c1ccc(N[C@H]2CC[C@H](Nc3ncc(OC(F)F)cn3)C2)nc1
Reply: 156

Query: Indicate the recorded LDLR expression level value for this compound: CC(C)(C)c1ccc2c(n1)C(=O)N(c1ccc(N[C@H]3CC[C@H](Nc4nc5cc(F)ccn5n4)C3)nc1)C2
Reply: 254

Query: Respond only with LDLR expression level recorded for O=C1c2cccnc2CN1c1ccc(N[C@H]2CC[C@H](Nc3ncc(OC(F)F)cn3)C2)nc1
Reply: 117

Query: Report LDLR expression level for O=c1ccccn1-c1ccc(N[C@H]2CC[C@H](Nc3ncc4cccn4n3)C2)nc1
Reply: 302

Query: Give a short answer stating reported LDLR expression level for Cc1cc2c(cn1)CN(c1ccc(N[C@H]3CC[C@H](Nc4ncc(C(F)(F)F)nn4)C3)nc1)C2=O .
Reply: 121

Query: Note LDLR expression level for the compound shown: O=C1c2nc(C(F)(F)F)ccc2CN1c1ccc(N[C@H]2CC[C@H](Nc3ncc(C4CC4)nn3)C2)nc1
Reply: 105

Query: Given the compound O=C1c2cc(C(F)(F)F)ncc2CN1c1ccc(N[C@H]2CC[C@H](Nc3nc4cc(F)ccn4n3)C2)nc1 , write its reported LDLR expression level.
Reply: 138

Query: Quick one: give measured LDLR expression level for FC(F)Oc1cnc(N[C@H]2CC[C@H](Nc3ccc(-c4cccn5ccnc45)cn3)C2)nc1
Reply: 175
